- Target Entity: renal dipeptidase (E.C.3.4.13.11) (Sus scrofa, UniProt P22412)
- Construct: solubilized preparation of dipeptidase isolated from hog kidneys; from tissue; host or cells: hog kidney
- Sequence (P22412 17-409): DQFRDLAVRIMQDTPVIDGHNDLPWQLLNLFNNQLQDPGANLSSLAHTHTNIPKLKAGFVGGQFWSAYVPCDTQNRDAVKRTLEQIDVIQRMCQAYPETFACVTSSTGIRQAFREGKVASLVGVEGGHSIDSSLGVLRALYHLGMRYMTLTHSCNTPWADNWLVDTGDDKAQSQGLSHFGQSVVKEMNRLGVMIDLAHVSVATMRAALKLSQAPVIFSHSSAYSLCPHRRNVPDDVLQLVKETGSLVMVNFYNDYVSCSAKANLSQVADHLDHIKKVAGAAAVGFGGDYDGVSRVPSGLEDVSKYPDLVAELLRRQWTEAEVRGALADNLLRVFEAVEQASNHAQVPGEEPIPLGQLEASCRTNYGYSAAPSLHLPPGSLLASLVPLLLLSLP
- Method Description: Inhibition of glycyldehydrophenylalanine (GDP) hydrolysis by renal dipeptidase in vitro
- Format: biochemical, pig (hog)
- Condition Context: concentration producing 50% inhibition; substrate GDP 0.05 mM; pH 7.1; 37° C.; read-out: Ki
pKi: −log10 of the molar value.
Parameter Measured: pKi

Check out these entries, answers already filled in.
| Compound | Target Entity | Readout Value |
| --- | --- | --- |
| CC(C)C/C=C(\NC(=O)C1CC1(C)C)C(=O)O (centres unmarked) | renal dipeptidase (E.C.3.4.13.11) (Sus scrofa, UniProt P22412) | 6.64 |
| C/C=C(\NC(=O)C1C(C)C1C)C(=O)O (centres unmarked) | renal dipeptidase (E.C.3.4.13.11) (Sus scrofa, UniProt P22412) | 5.34 |
| C/C=C(\NC(=O)CC1CC1)C(=O)O | renal dipeptidase (E.C.3.4.13.11) (Sus scrofa, UniProt P22412) | 4.66 |

[I] CC1(C)CC1C(=O)N/C(=C\CCc1ccccc1)C(=O)O (centres unmarked)
[II] C/C=C(\NC(=O)CC(C)CC(C)(C)C)C(=O)O (centres unmarked)
stdin: Record comparison, field pKi: mark the lower of I and II . Please reply using the label of the selected record.
stdout: II

[a] C/C=C(\NC(=O)C1CC1(CC)CC)C(=O)O (centres unmarked)
[b] CCC/C=C(\NC(=O)C1CC1(C)C)C(=O)O (centres unmarked)
[c] C/C=C(\NC(=O)CC(C)C)C(=O)O
[d] C[N+](C)(C)CCCCC/C=C(\NC(=O)C1CC1(Cl)Cl)C(=O)[O-] (centres unmarked)
stdin: Rank by pKi (largest to smallest). Please, when replying, give the labels in the order that was requested.
stdout: b, d, a, c
(b: 6.96, d: 6.74, a: 6.07, c: 5.22)
